Sourced from the antibiotic and cytotoxicity screens of Wong et al. (2023)

tested on: HepG2; experiment: cytotoxicity call (relative viability < 0.9); conditions: 10 µM
The whole screen tested about 39,000 compounds, of which about 3,300 (8.5%) were called active. This is one part of a sample in which actives are shown more often than they occur.
Respond only with the outcome that fits, drawn from active, inactive

input: Please share the test call associated with O=C1O[C@H](c2ccccc2)[C@H](c2ccccc2)N2[C@H]1[C@@H](C(=O)N1CCN(c3ncccn3)CC1)[C@]1(C(=O)Nc3ccc(C#CC4(O)CCCCCC4)cc31)[C@H]2c1ccc(OCCO)cc1 .
output: inactive

input: Please share the test call associated with C[C@@H]1CN([C@H](C)CO)C(=O)Cc2cc(N(C)C)ccc2O[C@@H]1CN(C)S(=O)(=O)c1ccc(Cl)cc1 .
output: inactive

input: Please share the test call associated with O=C(CN1CCOCC1)NCC[C@H]1CC[C@H](NS(=O)(=O)c2ccc(Cl)cc2)[C@@H](CO)O1 .
output: inactive

input: Please share the test call associated with C[C@@H]1CN([C@H](C)CO)C(=O)Cc2cc(N(C)C)ccc2O[C@H]1CN(C)S(=O)(=O)c1ccc(Cl)cc1 .
output: inactive

input: Please share the test call associated with C[C@@H]1CCCCO[C@H](CN(C)Cc2ccc3c(c2)OCO3)[C@@H](C)CN([C@@H](C)CO)C(=O)c2cc(NC(=O)NC3CCCCC3)ccc2O1 .
output: active

input: Please share the test call associated with O=C(C[C@@H]1C[C@@H]2c3cc(NC(=O)c4ccc5c(c4)OCO5)ccc3O[C@@H]2[C@H](CO)O1)NCC(F)(F)F .
output: inactive

input: Please share the test call associated with C[C@@H]1CN([C@H](C)CO)C(=O)c2ccccc2-c2ccccc2CO[C@H]1CN(C)C(=O)Nc1cccc(Cl)c1Cl .
output: inactive

input: Please share the test call associated with C[C@H](CO)N1C[C@H](C)[C@H](CN(C)Cc2ccc(C(F)(F)F)cc2)OCCCC[C@H](C)Oc2ccc(NS(=O)(=O)c3cn(C)cn3)cc2C1=O .
output: inactive

###

system: HepG2; assay: cytotoxicity call (relative viability < 0.9); conditions: 10 µM
The whole screen tested about 39,000 compounds, of which about 3,300 (8.5%) were called active. The sample as a whole holds a higher share of actives than the screen did.
Respond only with the outcome that fits, drawn from True = active, False = inactive

input: Please share the test call associated with COc1ccc(C(C)=O)c(O)c1 .
output: False

input: Please share the test call associated with CCn1cc(-c2ccnc3[nH]c(-c4cccc(CN(C)C)c4)cc23)c(-c2ccc(NC(=O)N(C)C)cc2)n1 .
output: True

input: Please share the test call associated with C[C@H]1CN([C@@H](C)CO)C(=O)c2cc(NC(=O)Nc3ccc(C(F)(F)F)cc3)ccc2O[C@H]1CN(C)Cc1ccncc1 .
output: False

input: Please share the test call associated with C[C@@H]1CN([C@@H](C)CO)C(=O)c2cc(NC(=O)Nc3ccc(C(F)(F)F)cc3)ccc2O[C@H]1CN(C)Cc1ccncc1 .
output: True

input: Please share the test call associated with C[C@H]1CN([C@@H](C)CO)C(=O)c2cc(NC(=O)Cc3cn(C)c4ccccc34)ccc2O[C@H]1CN(C)C(=O)Nc1ccc(C(F)(F)F)cc1 .
output: False

input: Please share the test call associated with C[C@H]1CN([C@@H](C)CO)C(=O)c2cc(NC(=O)Cc3cn(C)c4ccccc34)ccc2O[C@@H]1CN(C)C(=O)Nc1ccc(C(F)(F)F)cc1 .
output: True

###

test system: HepG2; assay: cytotoxicity call (relative viability < 0.9); details: 10 µM
About 3,300 (8.5%) of roughly 39,000 compounds were called active. The entries come from a sample that favours actives as a whole.
measured property: cytotoxicity call

In [3]: df
Out[3]:
                                   molecule  measured_property   reading
0  CC(C)NC(=O)N(C)C[C@@H]1Oc2c(NC(=O)Nc3ccc4c(c3)OCO4)cccc2C(=O)N([C@@H](C)CO)C[C@@H]1C  cytotoxicity call  inactive
1  COC(=O)C1C(O)CCC2CN3CCc4c([nH]c5ccccc45)C3CC21 (centres undefined)  cytotoxicity call  inactive
2                 N[C@@H](Cn1ccnc1)c1ccccc1  cytotoxicity call  inactive

###

tested on: HepG2; test: cytotoxicity call (relative viability < 0.9); details: 10 µM
The campaign covered roughly 39,000 compounds. About 3,300 (8.5%) were called active. The full list was thinned out, with actives kept by preference.
Respond only with the outcome that fits, drawn from active, inactive

input: Please share the test call associated with C[C@@H]1CN([C@@H](C)CO)C(=O)c2cc(NC(=O)Nc3ccccc3)ccc2O[C@@H](C)CCCCO[C@@H]1CN(C)Cc1ccc(C(F)(F)F)cc1 .
output: active

input: Please share the test call associated with C[C@@H]1CCCCO[C@H](CN(C)Cc2ccc(Cl)c(Cl)c2)[C@@H](C)CN([C@@H](C)CO)C(=O)c2cc(NC(=O)NC3CCCCC3)ccc2O1 .
output: inactive

input: Please share the test call associated with C[C@H](CO)N1C[C@H](C)[C@H](CN(C)C(=O)Nc2cccc3ccccc23)Oc2ncc(C#Cc3cccc(F)c3)cc2C1=O .
output: inactive

input: Please share the test call associated with C[C@@H]1CCCCO[C@@H](CN(C)Cc2ccc(C(F)(F)F)cc2)[C@H](C)CN([C@H](C)CO)C(=O)c2cc(NC(=O)Nc3ccc(C(F)(F)F)cc3)ccc2O1 .
output: inactive

input: Please share the test call associated with C[C@@H]1CCCCO[C@@H](CN(C)Cc2ccc(Cl)c(Cl)c2)[C@H](C)CN([C@@H](C)CO)C(=O)c2cc(NC(=O)NC3CCCCC3)ccc2O1 .
output: inactive

input: Please share the test call associated with C[C@@H]1CCCCO[C@@H](CN(C)Cc2ccc(C(F)(F)F)cc2)[C@H](C)CN([C@@H](C)CO)C(=O)c2cc(NC(=O)Nc3ccccc3)ccc2O1 .
output: inactive

input: Please share the test call associated with C[C@H](CO)N1C[C@H](C)[C@@H](CN(C)Cc2ccc(C(F)(F)F)cc2)OCCCC[C@H](C)Oc2ccc(NC(=O)Nc3ccccc3)cc2C1=O .
output: active

input: Please share the test call associated with NC(=O)NCCC[C@H](N)C(=O)O .
output: inactive

input: Please share the test call associated with C[C@@H]1CCCCO[C@@H](CN(C)Cc2ccc(C(F)(F)F)cc2)[C@@H](C)CN([C@@H](C)CO)C(=O)c2cc(NC(=O)Nc3ccc(C(F)(F)F)cc3)ccc2O1 .
output: inactive

###

system: HepG2; experiment: cytotoxicity call (relative viability < 0.9); settings: 10 µM
Hit rate of the full screen: of about 39,000 compounds, about 3,300 (8.5%) were called active. The list comes from a sample in which actives are over-represented; it also holds close analogues and randomly drawn compounds.
Respond only with the outcome that fits, drawn from t for active, f for inactive

input: Please share the test call associated with C[C@@H]1CN([C@@H](C)CO)C(=O)c2cccc(NC(=O)Nc3ccc4c(c3)OCO4)c2O[C@@H]1CN(C)Cc1ccc(Oc2ccccc2)cc1 .
output: f

input: Please share the test call associated with C[C@@H]1CCCCO[C@H](CN(C)C(=O)Nc2cccc3ccccc23)[C@H](C)CN([C@H](C)CO)C(=O)c2cc(NC(=O)C3CCCCC3)ccc2O1 .
output: t

input: Please share the test call associated with COc1ccc(NC(=O)Nc2ccc3c(c2)C(=O)N([C@@H](C)CO)C[C@@H](C)[C@@H](CN(C)C(=O)C2CCCCC2)OCCCC[C@H](C)O3)cc1 .
output: f

input: Please share the test call associated with C[C@@H]1CN([C@@H](C)CO)C(=O)c2cccc(NC(=O)Nc3ccc4c(c3)OCO4)c2O[C@H]1CN(C)Cc1ccc(Oc2ccccc2)cc1 .
output: f

###

test system: HepG2; test: cytotoxicity call (relative viability < 0.9); conditions: 10 µM
Screen size: about 39,000 compounds; about 3,300 (8.5%) were called active. This excerpt belongs to a sample that is enriched for actives.
Respond only with the outcome that fits, drawn from T (active), F (inactive)

input: Please share the test call associated with COc1ccc(S(=O)(=O)Nc2ccc3c(c2)C(=O)N([C@H](C)CO)C[C@H](C)[C@H](CN(C)S(=O)(=O)c2ccc(C)cc2)O3)cc1 .
output: F

input: Please share the test call associated with Cc1noc(C)c1S(=O)(=O)N(C)C[C@@H]1OCCCC[C@@H](C)Oc2ccc(NC(=O)Nc3cccc4ccccc34)cc2C(=O)N([C@H](C)CO)C[C@@H]1C .
output: F

input: Please share the test call associated with C[C@@H]1CN([C@@H](C)CO)S(=O)(=O)c2ccc(C3=CCCC3)cc2O[C@@H]1CN(C)C(=O)C1CCOCC1 .
output: F

input: Please share the test call associated with CCCc1nc(C)c2c(=O)[nH]c(-c3cc(S(=O)(=O)N4CCN(CC)CC4)ccc3OCC)nn12.Cl .
output: F

input: Please share the test call associated with CO[C@H]1CN(C)C(=O)c2ccc(NS(C)(=O)=O)cc2OC[C@@H](C)N(C(=O)C2CCOCC2)C[C@@H]1C .
output: F

input: Please share the test call associated with N#Cc1c(-c2ccccc2)no[n+]1[O-] .
output: F

input: Please share the test call associated with CN(c1ncccc1CNc1nc(Nc2ccc3c(c2)CC(=O)N3)ncc1C(F)(F)F)S(C)(=O)=O .
output: T

input: Please share the test call associated with c1cnc2c(c1)OCCN2 .
output: F

input: Please share the test call associated with Cc1ccc(S(=O)(=O)Nc2cccc3c2O[C@@H](CN(C)C(=O)Nc2cccc4ccccc24)[C@@H](C)CN([C@H](C)CO)C3=O)cc1 .
output: F

input: Please share the test call associated with CCS(=O)(=O)N1C[C@]2(C1)CN([C@@H](CO)c1[nH]c3cc(ccc3c12)OC)C(=O)Nc1c(noc1C)C .
output: F

input: Please share the test call associated with N=C(N)c1ccc2nc(-c3cc(CC(=O)N[C@@H](CC(=O)O)C(=O)O)cc(-c4cc(S(N)(=O)=O)ccc4O)c3O)[nH]c2c1 .
output: F

input: Please share the test call associated with COc1ccc(NC(=O)N2C[C@H](O)COC[C@@H]3O[C@H](CC(=O)NC4Cc5ccccc5C4)CC[C@H]32)cc1 .
output: F
